test: Stimulation of [3H]flunitrazepam binding to GABA type A receptor in mouse primary cortical neurons after 30 mins by liquid scintillation counting analysis; format: cell-based; settings: cerebral cortex neuron
pEC50: −log10 of the molar value.
Assign class by pEC50: not lower than 4 means 1; lower than 4 means 0.

Sample answers from the record:
>>> df
                               smilesstring  classassignment
0  CC(=O)[C@H]1CC[C@H]2[C@@H]3CC[C@H]4C[C@H](O)CC[C@]4(C)[C@H]3[C@H](N)C[C@]12C                0
1  CC(=O)[C@H]1CC[C@H]2[C@@H]3CC[C@@H]4C[C@H](O)CC[C@]4(C)[C@H]3[C@](O)(C#Cc3ccccc3)C[C@]12C                1
2  CC(=O)[C@H]1CC[C@H]2[C@@H]3CC[C@@H]4C[C@@](O)(C#Cc5ccccc5)CC[C@]4(C)[C@H]3[C@](O)(C#Cc3ccccc3)C[C@]12C                0

Decide: pEC50 of CC(=O)[C@H]1CC[C@H]2[C@@H]3CC[C@@H]4C[C@H](O)CC[C@]4(C)[C@H]3[C@H](O)C[C@]12C >= 4?
1

Decide: pEC50 of CC(=O)[C@H]1CC[C@H]2[C@@H]3CC[C@H]4C[C@H](O)CC[C@]4(C)[C@H]3[C@@H](C)C[C@]12C >= 4?
1

----------
tested on: Cerebral cortex neuron; assay: Stimulation of [3H]flunitrazepam binding to GABA type A receptor in mouse primary cortical neurons at 100 uM after 30 mins by liquid scintillation counting analysis relative to allopregnanolone; format: cell-based
Assign labels as follows, please: Satisfied for Emax below 90%; Not satisfied for Emax equal to or exceeding 90%.

Sample answers from the record:
In [3]: df
Out[3]:
                               smilesstring  classassignment
0  CC(=O)[C@H]1CC[C@H]2[C@@H]3CC[C@@H]4C[C@H](O)CC[C@]4(C)[C@H]3C(=O)C[C@]12C        Satisfied
1  CC(=O)N[C@@H]1C[C@H]2[C@@H](CC[C@H]3C[C@H](O)CC[C@@]32C)[C@@H]2CC[C@H](C(C)=O)[C@@]12C        Satisfied
2  CC(=O)[C@H]1CC[C@H]2[C@@H]3CC[C@H]4C[C@H](O)CC[C@]4(C)[C@H]3[C@@H](O)C[C@]12C    Not satisfied
3  CC(=O)[C@H]1CC[C@H]2[C@@H]3CC[C@H]4C[C@H](O)CC[C@]4(C)[C@H]3[C@H](O)C[C@]12C        Satisfied

--- query ---
Input C=C1C[C@]2(C)[C@@H](C(C)=O)CC[C@H]2[C@@H]2CC[C@H]3C[C@H](O)CC[C@]3(C)[C@@H]12 ; condition: Emax strictly below 90%. Does it hold?
Not satisfied

----------
system: Cerebral cortex neuron; test: Stimulation of [3H]flunitrazepam binding to GABA type A receptor in mouse primary cortical neurons at 100 uM after 30 mins by liquid scintillation counting analysis relative to allopregnanolone; format: cell-based
# maps each entry to its Emax
Write the answer as a number in %, unit excluded.

Determine from records and report Emax for CC(=O)[C@H]1CC[C@H]2[C@@H]3CC[C@@H]4C[C@H](O)CC[C@]4(C)[C@H]3[C@H](O)C[C@]12C
43

Determine from records and report Emax for CC(=O)[C@H]1CC[C@H]2[C@@H]3CC[C@@H]4C[C@H](O)CC[C@]4(C)[C@H]3[C@](O)(C#Cc3ccccc3)C[C@]12C
116

Determine from records and report Emax for CC(=O)[C@H]1CC[C@H]2[C@@H]3CC[C@H]4C[C@H](O)CC[C@]4(C)[C@H]3C(=O)C[C@]12C
92

Determine from records and report Emax for C#C[C@@]1(O)CC[C@@]2(C)[C@H](CC[C@H]3[C@@H]4CC[C@H](C(C)=O)[C@@]4(C)C[C@@](O)(C#C)[C@@H]32)C1
61

Determine from records and report Emax for CC(=O)[C@H]1CC[C@H]2[C@@H]3CC[C@H]4C[C@H](O)CC[C@]4(C)[C@H]3[C@@H](C)C[C@]12C
97

Determine from records and report Emax for CC(=O)[C@H]1CC[C@H]2[C@@H]3CC[C@H]4C[C@H](O)CC[C@]4(C)[C@H]3[C@@H]3O[C@@H]3[C@]12C
9

Determine from records and report Emax for CC(=O)[C@H]1CC[C@H]2[C@@H]3CC[C@H]4C[C@H](O)CC[C@]4(C)[C@H]3[C@H](N)C[C@]12C
45

----------
experiment: Stimulation of [3H]flunitrazepam binding to GABA type A receptor in mouse primary cortical neurons after 30 mins by liquid scintillation counting analysis; type: cell-based; details: cerebral cortex neuron
valueType: pEC50
Scale for pEC50: -log10 of concentration given in mol/L; no unit attached.

Completed entries (count: 3):
>>> print(df.to_string())
                                   molecule  measurednumber
0  CC(=O)[C@H]1CC[C@H]2[C@@H]3CC[C@H]4C[C@H](O)CC[C@]4(C)[C@H]3[C@@H](N)C[C@]12C            5.23
1  C#C[C@]1(O)C[C@]2(C)[C@@H](C(C)=O)CC[C@H]2[C@@H]2CC[C@@H]3C[C@H](O)CC[C@]3(C)[C@H]21            4.85
2  C#C[C@]1(O)C[C@]2(C)[C@@H](C(C)=O)CC[C@H]2[C@@H]2CC[C@H]3C[C@H](O)CC[C@]3(C)[C@H]21            4.49

Determine from records and report pEC50 for CC(=O)[C@H]1CC[C@H]2[C@@H]3CC[C@H]4C[C@H](O)CC[C@]4(C)[C@H]3C(=O)C[C@]12C [ALFAXALONE]
5.34

----------
system: Cerebral cortex neuron; experiment: Stimulation of [3H]flunitrazepam binding to GABA type A receptor in mouse primary cortical neurons at 100 uM after 30 mins by liquid scintillation counting analysis relative to allopregnanolone; assay type: cell-based
Assign labels as follows, please: 1.0 for Emax below 30%; 0.0 for Emax equal to or exceeding 30%.

Sample answers from the record:
In [3]: df
Out[3]:
                               smilesstring  classassignment
0  CC(=O)[C@H]1CC[C@H]2[C@@H]3CC[C@H]4C[C@H](O)CC[C@]4(C)[C@H]3C[C@@H](O)[C@]12C              1.0
1  CC(=O)[C@H]1CC[C@H]2[C@@H]3CC[C@@H]4C[C@H](O)CC[C@]4(C)[C@H]3[C@@H](O)C[C@]12C              1.0
2  CC(=O)[C@H]1CC[C@H]2[C@@H]3CC[C@H]4C[C@H](O)CC[C@]4(C)[C@H]3C=C[C@]12C              0.0
3  C#C[C@]1(O)C[C@]2(C)[C@@H](C(C)=O)CC[C@H]2[C@@H]2CC[C@H]3C[C@H](O)CC[C@]3(C)[C@H]21              0.0
4  CC(=O)[C@H]1CC[C@H]2[C@@H]3CC[C@@H]4C[C@@](O)(C#Cc5ccccc5)CC[C@]4(C)[C@H]3[C@](O)(C#Cc3ccccc3)C[C@]12C              1.0
5  CC(=O)[C@H]1CC[C@H]2[C@@H]3CC[C@H]4C[C@H](O)CC[C@]4(C)[C@H]3C[C@H](O)[C@]12C              0.0

Input CC(=O)[C@H]1CC[C@H]2[C@@H]3CC[C@@H]4C[C@H](O)CC[C@]4(C)C3=C(C)C[C@]12C ; condition: Emax strictly below 30%. Does it hold?
0.0

Input C=C1C[C@]2(C)[C@@H](C(C)=O)CC[C@H]2[C@@H]2CC[C@@H]3C[C@H](O)CC[C@]3(C)[C@@H]12 ; condition: Emax strictly below 30%. Does it hold?
1.0
